Test system: H2444
TEST DETAILS: Dose response study (Alamar Blue), H2444
Type: cell-based
TEST CONDITIONS: Homo sapiens, NCI-H2444, 48 h, read-out: IC50 H2444
pIC50: −log10 of the molar value.
Attribute: pIC50

[
  {
    "COMPOUND": "Cc1ccc(NC(=O)c2ccc([N+](=O)[O-])o2)cc1",
    "TESTED ON": "H2444",
    "pIC50": 5.32
  },
  {
    "COMPOUND": "O=c1c(Cl)c(Cl)cnn1-c1ccccc1",
    "TESTED ON": "H2444",
    "pIC50": 6.47
  },
  {
    "COMPOUND": "O=C(Nc1ccc(Cl)cc1)c1ccc([N+](=O)[O-])o1",
    "TESTED ON": "H2444",
    "pIC50": 5.61
  },
  {
    "COMPOUND": "Cc1cccc(-n2ncc(Cl)c(Cl)c2=O)c1",
    "TESTED ON": "H2444",
    "pIC50": 6.62
  }
]

----------
Test system: H1118
TEST DETAILS: Non Small Cell Lung Cancer proliferation assay (Alamar Blue reduction), H1118
Type: cell-based
TEST CONDITIONS: Homo sapiens; H1118; 12 point doubling dilution 10 uM to 5 nM; 48 h treatment, alamar blue additional 48 h; read-out: IC50 H1118

[
  {
    "COMPOUND": "CCc1cccc(-n2ncc(Cl)c(Cl)c2=O)c1",
    "IC50 [nM]": 670
  },
  {
    "COMPOUND": "Cc1cccc(-n2ncc(Br)c(Br)c2=O)c1",
    "IC50 [nM]": 410
  },
  {
    "COMPOUND": "O=c1c(Br)c(Br)cnn1-c1ccccn1",
    "IC50 [nM]": 100
  },
  {
    "COMPOUND": "O=c1c(Cl)c(Cl)cnn1-c1ccc(Cl)cc1Cl",
    "IC50 [nM]": 3730
  },
  {
    "COMPOUND": "Cc1cc(C)cc(-n2ncc(Cl)c(Cl)c2=O)c1",
    "IC50 [nM]": 580
  },
  {
    "COMPOUND": "O=c1c(Cl)c(Cl)cnn1-c1ccc(C(F)(F)F)cc1",
    "IC50 [nM]": 1660
  },
  {
    "COMPOUND": "O=c1c(Cl)c(Cl)cnn1-c1cccc(C(F)(F)F)c1",
    "IC50 [nM]": 310
  },
  {
    "COMPOUND": "O=C(Nc1ccc(F)c(Cl)c1)c1ccc([N+](=O)[O-])o1",
    "IC50 [nM]": 4330
  }
]

----------
TEST DETAILS: in vitro
TEST CONDITIONS: human, CytoTox (uM) WI-38

[
  {
    "COMPOUND": "O=c1c(Cl)c(Cl)cnn1-c1ccc(Cl)cc1Cl",
    "UNIT OF MEASUREMENT": "µM",
    "RESULT OPERATOR": "=",
    "IC50 at 72 h": 1.74
  },
  {
    "COMPOUND": "CCCCc1cccc(-n2ncc(Cl)c(Cl)c2=O)c1",
    "UNIT OF MEASUREMENT": "µM",
    "RESULT OPERATOR": ">",
    "IC50 at 72 h": 10
  },
  {
    "COMPOUND": "O=c1c(Br)c(Br)cnn1-c1ccccc1",
    "UNIT OF MEASUREMENT": "µM",
    "RESULT OPERATOR": "=",
    "IC50 at 72 h": 3.03
  },
  {
    "COMPOUND": "Cc1cc(-n2ncc(Cl)c(Cl)c2=O)ccc1Cl",
    "UNIT OF MEASUREMENT": "µM",
    "RESULT OPERATOR": ">",
    "IC50 at 72 h": 10
  },
  {
    "COMPOUND": "O=c1c(Br)c(Br)cnn1-c1cccc(C(F)(F)F)c1",
    "UNIT OF MEASUREMENT": "µM",
    "RESULT OPERATOR": "=",
    "IC50 at 72 h": 2.17
  }
]

----------
Test system: H2122
TEST DETAILS: Dose response study (Alamar Blue), H2122
Assay type: cell-based
TEST CONDITIONS: Homo sapiens, NCI-H2122; H2122; 12 point doubling dilution 10 uM to 5 nM; 48 h treatment, alamar blue additional 48 h; read-out: IC50 H2122
Procedure: Dose response studies against 34 compounds from the pyridazinone and phenylfuran-carboxamide class were conducted. […] In addition, Tarceva was included in these dose response studies. The dose response studies were done with the following standard procedure. First, the cells were counted and dispensed at 250 cells/well into 384-well microplates with compound. […] Finally, alamar blue reduction was measured and the data was loaded into ORIS, our data screening acquisition platform.
pIC50: −log10 of the molar value.
# pIC50 values compiled below

[
  {
    "COMPOUND": "O=C(Nc1ccc(F)c(Cl)c1)c1ccc([N+](=O)[O-])o1 [compound 87200]",
    "RESULT OPERATOR": "<",
    "pIC50": 5.00
  },
  {
    "COMPOUND": "Cc1ccc(-n2ncc(Cl)c(Cl)c2=O)cc1Cl [compound 267070]",
    "RESULT OPERATOR": "<",
    "pIC50": 5.00
  },
  {
    "COMPOUND": "O=c1c(Br)c(Br)cnn1-c1ccccn1 [compound 267073]",
    "RESULT OPERATOR": "=",
    "pIC50": 6.11
  },
  {
    "COMPOUND": "CCCCc1cccc(-n2ncc(Cl)c(Cl)c2=O)c1 [compound 267063]",
    "RESULT OPERATOR": "<",
    "pIC50": 5.00
  },
  {
    "COMPOUND": "O=c1c(Cl)c(Cl)cnn1-c1ccc2c(c1)CCC2 [compound 267066]",
    "RESULT OPERATOR": "=",
    "pIC50": 5.06
  },
  {
    "COMPOUND": "Cc1ccc(-n2ncc(Cl)c(Cl)c2=O)cc1C [compound 257019]",
    "RESULT OPERATOR": "=",
    "pIC50": 5.36
  },
  {
    "COMPOUND": "Cc1cccc(-n2ncc(I)c(I)c2=O)c1 [compound 267085]",
    "RESULT OPERATOR": "=",
    "pIC50": 5.63
  },
  {
    "COMPOUND": "Cc1cc(-n2ncc(Cl)c(Cl)c2=O)ccc1Cl [compound 267065]",
    "RESULT OPERATOR": "<",
    "pIC50": 5.00
  },
  {
    "COMPOUND": "COc1cccc(-n2ncc(Br)c(Br)c2=O)c1 [compound 267083]",
    "RESULT OPERATOR": "=",
    "pIC50": 5.94
  }
]

----------
# reported IC50; entries follow
System: H1650
TEST DETAILS: Non Small Cell Lung Cancer proliferation assay (Alamar Blue reduction), H1650
Format: cell-based, human
TEST CONDITIONS: Homo sapiens, NCI-H1650, dose response 10 M to 5 nM; IC50; read-out: Dose Response (uM) H1650

[
  {
    "COMPOUND": "O=c1c(Cl)c(Cl)cnn1-c1ccc(Cl)cc1Cl",
    "RESULT OPERATOR": "=",
    "IC50 [µM]": 0.56
  },
  {
    "COMPOUND": "CCN(CC)c1cnn(-c2cccc(C)c2)c(=O)c1Cl",
    "RESULT OPERATOR": ">",
    "IC50 [µM]": 10
  },
  {
    "COMPOUND": "O=c1c(Br)c(SCc2ccccc2)cnn1-c1ccccc1",
    "RESULT OPERATOR": ">",
    "IC50 [µM]": 10
  },
  {
    "COMPOUND": "O=c1c(Br)c(Br)cnn1-c1cccc(C(F)(F)F)c1",
    "RESULT OPERATOR": "=",
    "IC50 [µM]": 0.54
  },
  {
    "COMPOUND": "O=c1c(Cl)c(Cl)cnn1-c1ccccn1",
    "RESULT OPERATOR": "=",
    "IC50 [µM]": 1.29
  }
]

----------
System: H1650
TEST DETAILS: Non Small Cell Lung Cancer proliferation assay (Alamar Blue reduction), H1650
Format: cell-based, human
TEST CONDITIONS: Homo sapiens, NCI-H1650, dose response 10 M to 5 nM; IC50; read-out: Dose Response (uM) H1650

[
  {
    "COMPOUND": "COc1ccc(=O)n(-c2cccc(C)c2)n1",
    "IC50": "> 10 µM"
  },
  {
    "COMPOUND": "Cc1cc(-n2ncc(Cl)c(Cl)c2=O)ccc1Cl",
    "IC50": "> 10 µM"
  },
  {
    "COMPOUND": "O=c1c(Cl)c(Cl)cnn1-c1ccc2c(c1)OCCO2",
    "IC50": "2.33 µM"
  },
  {
    "COMPOUND": "O=c1c(Br)c(Br)cnn1-c1ccccc1",
    "IC50": "1.14 µM"
  },
  {
    "COMPOUND": "CN/N=C1\\C=NN(c2ccc(C)cc2)C(=O)C1Cl (stereo not shown)",
    "IC50": "> 10 µM"
  },
  {
    "COMPOUND": "O=c1c(Cl)c(Cl)cnn1-c1ccc2c(c1)CCC2",
    "IC50": "1.69 µM"
  },
  {
    "COMPOUND": "Cc1cccc(-n2ncc(I)c(I)c2=O)c1",
    "IC50": "1.93 µM"
  },
  {
    "COMPOUND": "Cc1nc2cc(-n3ncc(Cl)c(Cl)c3=O)ccc2s1",
    "IC50": "4.47 µM"
  },
  {
    "COMPOUND": "O=c1c(Br)c(Br)cnn1-c1ccccn1",
    "IC50": "0.8 µM"
  },
  {
    "COMPOUND": "Cc1cc(-n2ncc(Cl)c(Cl)c2=O)ccc1Br",
    "IC50": "2.83 µM"
  }
]
